quantity_measured: melting point

Some solved cases for reference:
{"compound": "Cc1noc(C)c1S(=O)(=O)Nc1cc(-c2ncc(C(F)(F)F)cc2Cl)ccc1Cl", "melting point": "161 to 162 °C"}
{"compound": "CCN(C)N1CSC(=Cc2cc(C(C)(C)C)c(O)c(C(C)(C)C)c2)C1=O", "melting point": "134 to 135 °C"}

Look up melting point for this compound: CCOC(=O)C(c1c[nH]c2cccc(C(=O)OC)c12)C(C)[N+](=O)[O-] (stereo not drawn)
106 to 110 °C

====

Recorded measurements of melting point, one per entry

These solved cases illustrate the format of a correct answer.
{"compound": "C=CC[C@H](C(N)=O)[C@@H](CC(C)C)C(=O)NC1N=C(N2CCCCCC2)c2ccccc2N(C)C1=O (stereo not given in full)", "melting point": "232 to 237 °C"}
{"compound": "C[C@@H](CN1CCc2ccc3c(c21)OCCO3)NC(=O)OC(C)(C)C", "melting point": "130 to 132 °C"}
{"compound": "Cc1cc(NC2=NCCN2C(=O)c2ccccc2)n(C)n1", "melting point": "147 to 149 °C"}
{"compound": "CC12CCC(=O)C=C1CCC1C2CCC2(C)C(C(=O)C3CCCCC3)CCC12 (stereo not given)", "melting point": "159 to 161 °C"}

Next:
melting point lookup needed for CCOC(=O)/C(C)=C/CC[C@@H](C)[C@H]1CC[C@@]2(C)C3=CCC4C(C)(C)C(=O)CC[C@]4(C)C3=CC[C@]12C (stereo not given in full) , thanks.
53 to 55 °C
